B1: CPEB3 Ribozyme (parent)
chain: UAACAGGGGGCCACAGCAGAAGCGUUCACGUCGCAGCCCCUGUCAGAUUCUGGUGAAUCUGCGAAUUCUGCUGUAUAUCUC

Variants of: B1
Experimental Protocol: self-cleavage, relative activity (ratio to wild type); higher = more cleavage; in vitro, sequencing
If the reported self-cleavage equals or exceeds 0.5, assign fulfilled. If not, assign not fulfilled.

Known results for variants:
Mutations: C11U U41A
Group: not fulfilled
--
Mutations: U58A U74C
Group: fulfilled
--
Mutations: U1G A5U
Group: fulfilled
--
Mutations: A5G A47U
Group: not fulfilled

Prompt: hey, is self-cleavage for this one >= 0.5? U48C A75G
Completion: not fulfilled

Prompt: hey, is self-cleavage for this one >= 0.5? G33A U48C
Completion: not fulfilled

Prompt: hey, is self-cleavage for this one >= 0.5? U1A A57G
Completion: fulfilled

Prompt: hey, is self-cleavage for this one >= 0.5? U43C C44G
Completion: not fulfilled

Prompt: hey, is self-cleavage for this one >= 0.5? "G52U"
Completion: fulfilled

Prompt: hey, is self-cleavage for this one >= 0.5? A3U A47U
Completion: fulfilled

Prompt: hey, is self-cleavage for this one >= 0.5? U25A C34A
Completion: not fulfilled
